- Target Under Test: MRG15 MRG W172A (human) (UniProt Q9UBU8)
- Protocol Details: ITC
Measured Property: Kd
Quick note: unit goes after the number.

Quick one: Kd of DYVQPQLRRPFELLIAAAMERNPTQFQLPNELTCTTALPGSS (domain or fragment) [Pf1 MBD (MRG-binding domain, residues 200–241)] ?
67 nM
